Catalogue of pIC50 readings, one per entry.
- Test system: HT-29 cells
- assay info: CellTiter-Glo luminescent cell viability assay with HT-29 cells (72h incubation)
- Format: cell-based, human
- test parameters: Homo sapiens, HT-29, HT29 cells, read-out: CTG HT29
pIC50: −log10 of the molar value.

1) CC(=O)N[C@H]1CC(=O)N2CCCC(CCOc3cccc(c3)CNC(=O)[C@H](CCc3ccccc3)NC1=O)C2 (stereo partly shown) [Compound 364] ... > 7.00
2) COC(=O)N(CC1NC(=O)[C@@H](NC(C)=O)CC(=O)N2CCCC(CCOc3ccc(C)c(c3)CNC1=O)C2)c1ccccc1 (stereo partly shown) [Compound 560] ... > 7.00

Next, consider the following compound.
Supply measured pIC50 of CC(=O)N[C@H]1CCCC(=O)N(C)CCCCOc2ccc(C)c(c2)CNC(=O)[C@H](CCc2ccccc2)NC1=O [Compound 295] in your reply.
> 7.00

###

Catalogue of IC50 readings, one per entry.
- Test system: hPMBC
- assay info: Chymotrypsin-like ProteasomeGlo assay in hPBMC
- Assay type: cell-based
- test parameters: Homo sapiens; read-out: Pglo hPBMC

Supply measured IC50 of Cc1ccc2cc1CNC(=O)[C@H](CCc1ccccc1)NC(=O)[C@@H](NC(=O)CCc1ccc(-c3ccccc3)cc1)CC(=O)N1CCCC(CCO2)C1 (stereo partly drawn) [Compound 176] in your reply.
< 100 nM

Supply measured IC50 of CC(=O)N[C@H]1CCCC(=O)N(C)CCCCOc2ccc(C)c(c2)CNC(=O)[C@H](CCc2ccccc2)NC1=O [Compound 295] in your reply.
100 to 500 nM

Supply measured IC50 of Cc1ccc2cc1CNC(=O)[C@H](CCc1ccccc1)NC(=O)[C@@H](NC(=O)CCc1ccc3[nH]ccc3c1)CC(=O)N1CCCC(CCO2)C1 (stereo partly drawn) [Compound 182] in your reply.
< 100 nM

Supply measured IC50 of Cc1ccc2cc1CNC(=O)[C@H](CCc1ccccc1)NC(=O)[C@@H](NC(=O)OCc1ccccc1)CCC(=O)N1CCCC3(CC(C3)O2)C1 [Compound 301] in your reply.
1000 to 5000 nM

Supply measured IC50 of Cc1ccc2cc1CNC(=O)[C@H](CCc1ccccc1)NC(=O)[C@@H](NC(=O)c1n[nH]c3ccccc13)CC(=O)N1CCCC(CCO2)C1 (stereo partly drawn) [Compound 60] in your reply.
100 to 500 nM

Supply measured IC50 of Cc1ccc2cc1CNC(=O)C(CCc1ccc(C3(C)COC3)cc1)NC(=O)[C@@H](NC(=O)OCc1ccccc1)CC(=O)N1CCCC(CCO2)C1 (stereo partly drawn) [Compound 510] in your reply.
< 100 nM

###

Catalogue of pIC50 readings, one per entry.
- System: Hs 746T (human gastric carcinoma cell line)
- assay info: 48 hr CTG viability assay, Hs 746T
- Format: cell-based
- test parameters: Hs746T, 48 hr CTG, read-out: Hs 746T IC50
pIC50: −log10 of the molar value.

Example results:
1) Cc1ccc2cc1CNC(=O)[C@H](CCc1ccccc1)NC(=O)[C@@H](NC(=O)CCOC1CC3(CNC3)C1)CC(=O)N1CCCC(CCO2)C1 (stereo partly drawn) ... 6.30 to 7.00
2) Cc1ccc2cc1CNC(=O)[C@H](CCc1ccccc1)NC(=O)[C@@H](NC(=O)N1CCc3cc(O)ccc31)CC(=O)N1CCCC(CCO2)C1 (stereo partly drawn) ... > 7.00
3) Cc1ccc2cc1CNC(=O)[C@H](CCc1ccccc1)NC(=O)[C@@H](NC(=O)CCN1CCC3(CCCC3)C1)CC(=O)N1CCCC(CCO2)C1 (stereo partly drawn) ... > 7.00
4) Cc1ccc2cc1CNC(=O)[C@H](CCc1ccccc1)NC(=O)[C@@H](NC(=O)CCN1CC3(CCOCC3)C1)CC(=O)N1CCCC(CCO2)C1 (stereo partly drawn) ... > 7.00
5) CC(=O)c1ccc(CC(=O)N[C@H]2CCC(=O)NCCCCOc3ccc(C)c(c3)CNC(=O)[C@H](CCc3ccccc3)NC2=O)cc1 ... > 7.00

Supply measured pIC50 of COc1ccc(CCCOCCC(=O)N[C@H]2CC(=O)N3CCCC(CCOc4ccc(C)c(c4)CNC(=O)[C@H](CCc4ccccc4)NC2=O)C3)cc1 (stereo partly drawn) in your reply.
> 7.00

Supply measured pIC50 of Cc1ccc2cc1CNC(=O)[C@H](CCc1ccccc1)NC(=O)[C@@H](NC(=O)C1CC3CCC(C1)N3C(=O)OC(C)(C)C)CC(=O)N1CCCC(CCO2)C1 (stereo partly drawn) in your reply.
6.30 to 7.00

Supply measured pIC50 of Cc1ccc2cc1CNC(=O)[C@H](CCc1ccccc1)NC(=O)[C@@H](NC(=O)C1CC3(C1)CN(C)C3)CC(=O)N1CCCC(CCO2)C1 (stereo partly drawn) in your reply.
6.30 to 7.00

Supply measured pIC50 of Cc1ccc2cc1CNC(=O)[C@H](CCc1ccccc1)NC(=O)[C@@H](NC(=O)CCOCCCC1CC1)CC(=O)N1CCCC(CCO2)C1 (stereo partly drawn) in your reply.
> 7.00
